All figures here come from patent US20240140986A1.

System: IFNγ-induced NO production in RAW 264.7 cells
Protocol details: Nitric Oxide Suppression Assay (IFNγ-induced NO, Griess nitrite readout)
Type: cell-based, mouse
Assay context: Table 2; ratio to RTA402
Readings of Avg NO IC50 Relative to RTA402 (fold) for the listed compounds
Output spec: scalar in fold, unitless text.

Use these answered entries as a reference point.
# Compound, Data value
records = [
    ("CNC(=O)C[C@]12CC[C@@H](C)[C@H](C)[C@H]1[C@H]1C(=O)C=C3[C@@]4(C)C=C(C#N)C(=O)C(C)(C)[C@@H]4CC[C@@]3(C)[C@]1(C)CC2 [Compound T91]", 2.44),
    ("COC(=O)C[C@]12CC[C@@H](C)[C@H](C)[C@H]1[C@H]1C(=O)C=C3[C@@]4(C)C=C(C#N)C(=O)C(C)(C)[C@@H]4CC[C@@]3(C)[C@]1(C)CC2 [Compound T88]", 6.48),
]

Exam item: Requested field: Avg NO IC50 Relative to RTA402 (fold). Item: C[C@@H]1[C@H]2[C@H]3[C@H]4C[C@@H]5[C@@]6(C)C=C(C#N)C(=O)C(C)(C)[C@@H]6CC[C@@]5(C)[C@]3(C)CC[C@]2(CC[C@H]1C)C(=O)O4 [Compound T102]
Marked response: 36.5

Exam item: Requested field: Avg NO IC50 Relative to RTA402 (fold). Item: COC(=O)NC[C@]12CC[C@@H](C)[C@H](C)[C@H]1[C@H]1C(=O)C=C3[C@@]4(C)C=C(C#N)C(=O)C(C)(C)[C@@H]4CC[C@@]3(C)[C@]1(C)CC2 [Compound T30]
Marked response: 1.33

Exam item: Requested field: Avg NO IC50 Relative to RTA402 (fold). Item: C[C@@H]1[C@H]2[C@H]3C(=O)C=C4[C@@]5(C)C=C(C#N)C(=O)C(C)(C)[C@@H]5CC[C@@]4(C)[C@]3(C)CC[C@@]2(CNC(=O)C2CCC2)CC[C@H]1C [Compound T25]
Marked response: 1.49

----------
Readings of Relative Avg AREc32 EC2X Relative to RTA402 (fold) for the listed compounds
Test system: Nrf2 / ARE-dependent luciferase in AREc32 reporter cell line
Protocol details: AREc32 luciferase reporter activation (Nrf2 induction)
Assay type: cell-based, human
Assay context: Table 2; ratio to RTA402
Output spec: scalar in fold, unitless text.

Exam item: Requested field: Relative Avg AREc32 EC2X Relative to RTA402 (fold). Item: Cc1noc(C[C@]23CC[C@@H](C)[C@H](C)[C@H]2[C@H]2C(=O)C=C4[C@@]5(C)C=C(C#N)C(=O)C(C)(C)[C@@H]5CC[C@@]4(C)[C@]2(C)CC3)n1
Marked response: 1.32

Exam item: Requested field: Relative Avg AREc32 EC2X Relative to RTA402 (fold). Item: C[C@@H]1[C@H]2[C@H]3C(=O)C=C4[C@@]5(C)C=C(C#N)C(=O)C(C)(C)[C@@H]5CC[C@@]4(C)[C@]3(C)CC[C@@]2(CNC(=O)C2CC2)CC[C@H]1C
Marked response: 0.224

Exam item: Requested field: Relative Avg AREc32 EC2X Relative to RTA402 (fold). Item: C[C@@H]1[C@H]2[C@H]3C(=O)C=C4[C@@]5(C)C=C(C#N)C(=O)C(C)(C)[C@@H]5CC[C@@]4(C)[C@]3(C)CC[C@@]2(CN2CCC2=O)CC[C@H]1C
Marked response: 0.349
